Source of measurements: patent US20240150369A1

# target-under-test: CDK2/Cyclin A (Homo sapiens (Human), UniProt P24941)
# assay-summary: CDK2/Cyclin A kinase assay (Nanosyn, Caliper microfluidic)
# reported-conditions: 12-point dose-response, singlicate, at Km for ATP; ATP 50 μM; 3 hr
Kindly state IC50 for each of the entries shown.
In your response, put the unit directly after the numeric value.

Below, each entry is followed by its recorded IC50 result.
>  <molecule>
NS(=O)(=O)c1ccc(Nc2ncc3cc4n(c3n2)C2(CCCCC2)C(=O)NN4)cc1 [Compound 3]

>  <IC50>
2.5 nM

$$$$
>  <molecule>
CN1CCN(S(=O)(=O)c2ccc(Nc3ncc4cc5n(c4n3)C3(CCCCC3)CC(=O)N5)cc2)CC1 [Compound 51]

>  <IC50>
4 nM

$$$$
>  <molecule>
NC(=O)c1ccc(Nc2ncc3cc4n(c3n2)C2(CCCCC2)C(=O)NN4)cc1 [Compound 63]

>  <IC50>
81 nM

$$$$

State the recorded IC50 for every item in the following list.
1. NS(=O)(=O)c1ccc(Nc2ncc3cc4n(c3n2)C2(CCCCC2)C(=O)N[C@H]4CF)cc1 [Compound 18]
2. CC1C(=O)Nc2cc3cnc(Nc4ccc(S(=O)(=O)N5CCN(C)CC5)cc4)nc3n2C12CCCCC2 (stereo not shown) [Compound 59]
3. O=C(c1ccc(Nc2ncc3cc4n(c3n2)C2(CCCCC2)C(=O)NN4)cc1)N1CCOCC1 [Compound 74]
4. CNC(=O)c1ccc(Nc2ncc3cc4n(c3n2)C2(CCCCC2)C(=O)NN4)cc1 [Compound 64]

1. 1.7 nM
2. 5 nM
3. 29 nM
4. 85 nM

----------
# target-under-test: CDK2/Cyclin A (Homo sapiens (Human), UniProt P24941)
# assay-summary: CDK2/Cyclin A kinase assay (Nanosyn, Caliper microfluidic)
# Format: biochemical
# reported-conditions: 12-point dose-response, singlicate, at Km for ATP; ATP 50 μM; 3 hr
quantity-measured: pIC50
One number for each entry, as −log10 of the molar value.

>  <compound>
CN1CCN(C(=O)c2ccc(Nc3ncc4cc5n(c4n3)C3(CCCCC3)C(=O)NN5)cc2)CC1

>  <pIC50>
7.74

$$$$
>  <compound>
CS(=N)(=O)c1ccc(Nc2ncc3cc4n(c3n2)C2(CCCCC2)C(=O)NN4)cc1 (centres unmarked)

>  <pIC50>
7.80

$$$$
>  <compound>
CN1CCN(S(=O)(=O)c2ccc(Nc3ncc4cc5n(c4n3)C3(CCCCC3)C(=O)NC5O)cc2)CC1 (centres unmarked)

>  <pIC50>
8.70

$$$$
>  <compound>
CC1C(=O)Nc2cc3cnc(Nc4ccc(S(N)(=O)=O)cc4)nc3n2C12CCCCC2 (centres unmarked)

>  <pIC50>
9.00

$$$$
>  <compound>
NS(=O)(=O)c1ccc(Nc2ncc3cc4n(c3n2)C2(C=NN4)CCCCC2)cc1

>  <pIC50>
9.00

$$$$
>  <compound>
CN1N=CC2(CCCCC2)n2c1cc1cnc(Nc3ccc(S(N)(=O)=O)cc3)nc12

>  <pIC50>
8.70

$$$$

State the recorded pIC50 for every item in the following list.
1. CC1=NN(C)c2cc3cnc(Nc4ccc(S(N)(=O)=O)cc4)nc3n2C12CCCCC2
2. CN1CCN(S(=O)(=O)c2ccc(Nc3ncc4cc5n(c4n3)C3(CCCCC3)C(=O)NN5)cc2)CC1

1. 8.70
2. 7.35

----------
# target-under-test: CDK4/Cyclin D1 (Homo sapiens (Human), UniProt P11802)
# Sequence (P11802 whole entry): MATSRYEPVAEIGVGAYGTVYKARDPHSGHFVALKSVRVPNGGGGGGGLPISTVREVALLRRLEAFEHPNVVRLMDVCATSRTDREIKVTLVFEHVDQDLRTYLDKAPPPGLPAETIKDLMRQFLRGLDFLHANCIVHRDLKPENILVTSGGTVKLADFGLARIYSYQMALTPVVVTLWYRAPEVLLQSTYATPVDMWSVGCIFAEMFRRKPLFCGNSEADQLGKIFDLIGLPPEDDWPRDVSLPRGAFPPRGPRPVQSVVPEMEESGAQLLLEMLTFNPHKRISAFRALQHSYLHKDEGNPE
# Sequence (P24385 whole entry partner): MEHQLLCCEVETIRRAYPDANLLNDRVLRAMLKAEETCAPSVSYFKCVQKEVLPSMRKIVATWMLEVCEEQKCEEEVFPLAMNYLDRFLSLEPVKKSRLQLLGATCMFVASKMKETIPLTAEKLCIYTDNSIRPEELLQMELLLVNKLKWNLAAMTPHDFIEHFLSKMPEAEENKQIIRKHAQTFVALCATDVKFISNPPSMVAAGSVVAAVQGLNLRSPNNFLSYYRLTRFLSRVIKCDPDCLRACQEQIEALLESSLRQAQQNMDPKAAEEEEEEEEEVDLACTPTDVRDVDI
# assay-summary: CDK4/Cyclin D1 kinase assay (Nanosyn, Caliper microfluidic)
# reported-conditions: 12-point dose-response, singlicate, at Km for ATP; ATP 200 μM; 3 hr
Exam item: assign class 1 to entries whose IC50 is below 40 nM and class 0 to entries at or above 40 nM. Note that a value of exactly 40 nM receives class 0.

>  <compound>
NS(=O)(=O)c1ccc(Nc2ncc3cc4n(c3n2)C2(CCCCC2)C(=O)NC4O)cc1 (stereo not shown) [Compound 1]

>  <qualitative-label>
class 1

$$$$
>  <compound>
CNC(=O)c1ccc(Nc2ncc3cc4n(c3n2)C2(CCCCC2)C(=O)NN4)cc1 [Compound 64]

>  <qualitative-label>
class 0

$$$$

Does the reported IC50 of CN1CCN(S(=O)(=O)c2ccc(Nc3ncc4cc5n(c4n3)C3(CCCCC3)C(=O)NC5O)cc2)CC1 (stereo not shown) [Compound 50] stay below 40 nM?
class 0

Does the reported IC50 of CN1CCN(S(=O)(=O)c2ccc(Nc3ncc4cc5n(c4n3)C3(CCCCC3)C(=O)NN5)cc2)CC1 [Compound 49] stay below 40 nM?
class 0

Does the reported IC50 of CC1=NN(C)c2cc3cnc(Nc4ccc(S(N)(=O)=O)cc4)nc3n2C12CCCCC2 [Compound 46] stay below 40 nM?
class 1

Does the reported IC50 of CN1CCN(C(=O)c2ccc(Nc3ncc4cc5n(c4n3)C3(CCCCC3)CC(=O)N5)cc2)CC1 [Compound 54] stay below 40 nM?
class 1

Does the reported IC50 of NS(=O)(=O)c1ccc(Nc2ncc3cc4n(c3n2)C2(CCCCC2)C(=O)N[C@H]4CF)cc1 [Compound 18] stay below 40 nM?
class 1

Does the reported IC50 of NS(=O)(=O)c1ccc(Nc2ncc3cc4n(c3n2)C2(C=NN4)CCCCC2)cc1 [Compound 4] stay below 40 nM?
class 0

Does the reported IC50 of O=C1NCC2(CCCCC2)n2c1cc1cnc(Nc3ccc(C(=O)N4CCNCC4)cc3)nc12 [Compound 55] stay below 40 nM?
class 1

----------
# target-under-test: CDK2/Cyclin A (Homo sapiens (Human))
# assay-summary: CDK2/Cyclin A kinase assay (Nanosyn, Caliper microfluidic)
# Format: biochemical
# reported-conditions: 12-point dose-response, singlicate, at Km for ATP; ATP 50 μM; 3 hr
quantity-measured: log10 IC50 (log10 of the value in nM)
In plain terms, each number is the log10 of measured IC50 in nM.

Below, each entry is followed by its recorded log10 IC50 result.
>  <compound>
O=C1NCC2(CCCCC2)n2c1cc1cnc(Nc3ccc(C(=O)N4CCNCC4)cc3)nc12

>  <endpoint-result>
-0.22

$$$$
>  <compound>
Nc1ccc(S(=O)(=O)Nc2ncc3cc4n(c3n2)C2(CCCCC2)C(=O)NN4)cc1

>  <endpoint-result>
2.76

$$$$
>  <compound>
O=C(c1ccc(Nc2ncc3cc4n(c3n2)C2(CCCCC2)C(=O)NN4)cc1)N1CCNCC1

>  <endpoint-result>
1.23

$$$$

State the recorded log10 IC50 for every item in the following list.
1. NS(=O)(=O)c1ccc(Nc2ncc3cc4n(c3n2)C2(CCCCC2)C(=O)NC4O)cc1 (stereo not shown)
2. CC1=NNc2cc3cnc(Nc4ccc(S(N)(=O)=O)cc4)nc3n2C12CCCCC2
3. CN1CCN(C(=O)c2ccc(Nc3ncc4cc5n(c4n3)C3(CCCCC3)C(=O)NC5O)cc2)CC1 (stereo not shown)
4. NS(=O)(=O)c1ccc(Nc2ncc3cc4n(c3n2)C2(CCCCC2)C(=O)N[C@@H]4CF)cc1

[-0.80, 1.20, 0.30, 0.00]

----------
# target-under-test: CDK7 (Homo sapiens (Human))
# Sequence (P50613 whole entry): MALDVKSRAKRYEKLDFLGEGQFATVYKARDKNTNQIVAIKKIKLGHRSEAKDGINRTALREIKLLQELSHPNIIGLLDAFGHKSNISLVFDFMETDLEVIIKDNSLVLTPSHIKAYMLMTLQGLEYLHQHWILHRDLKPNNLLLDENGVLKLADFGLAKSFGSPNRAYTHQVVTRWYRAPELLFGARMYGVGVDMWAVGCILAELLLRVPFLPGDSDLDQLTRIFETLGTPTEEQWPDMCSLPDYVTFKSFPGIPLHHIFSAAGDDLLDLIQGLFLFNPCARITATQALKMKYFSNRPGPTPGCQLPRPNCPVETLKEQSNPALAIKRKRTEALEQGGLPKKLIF
# Sequence (P51946 whole entry partner): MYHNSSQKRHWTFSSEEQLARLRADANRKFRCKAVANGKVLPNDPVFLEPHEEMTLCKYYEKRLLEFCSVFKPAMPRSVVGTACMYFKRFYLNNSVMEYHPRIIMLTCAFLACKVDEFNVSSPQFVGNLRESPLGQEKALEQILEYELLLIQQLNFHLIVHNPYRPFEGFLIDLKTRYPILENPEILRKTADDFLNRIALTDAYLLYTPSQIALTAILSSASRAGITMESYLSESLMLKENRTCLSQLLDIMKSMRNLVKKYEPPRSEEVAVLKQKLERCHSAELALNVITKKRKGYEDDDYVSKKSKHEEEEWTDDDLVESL
# Sequence (P51948 whole entry partner): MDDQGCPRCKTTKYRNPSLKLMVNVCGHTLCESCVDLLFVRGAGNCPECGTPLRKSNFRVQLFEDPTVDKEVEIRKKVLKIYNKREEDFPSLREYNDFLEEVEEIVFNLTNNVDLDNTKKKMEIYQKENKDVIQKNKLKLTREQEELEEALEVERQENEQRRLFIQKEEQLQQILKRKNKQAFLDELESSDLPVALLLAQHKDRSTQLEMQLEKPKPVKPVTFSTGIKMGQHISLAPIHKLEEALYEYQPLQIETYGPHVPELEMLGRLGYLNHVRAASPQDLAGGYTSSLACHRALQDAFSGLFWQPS
Exam item: assign true to entries whose IC50 is below 600 nM and false to entries at or above 600 nM. Note that a value of exactly 600 nM receives false.

Recorded results for 5 compounds are shown here.
>  <compound>
CN1CCN(C(=O)c2ccc(Nc3ncc4cc5n(c4n3)C3(CCCCC3)C(=O)NN5)cc2)CC1 [Compound 52]

>  <qualitative-label>
false

$$$$
>  <compound>
O=C(c1ccc(Nc2ncc3cc4n(c3n2)C2(CCCCC2)C(=O)NN4)cc1)N1CCNCC1 [Compound 61]

>  <qualitative-label>
false

$$$$
>  <compound>
NS(=O)(=O)c1ccc(Nc2ncc3cc4n(c3n2)C2(CCCCC2)C(=O)NC4O)cc1 (stereo not shown) [Compound 1]

>  <qualitative-label>
true

$$$$
>  <compound>
CN1CCN(S(=O)(=O)c2ccc(Nc3ncc4cc5n(c4n3)C3(CCCCC3)C(=O)NN5)cc2)CC1 [Compound 49]

>  <qualitative-label>
true

$$$$
>  <compound>
NS(=O)(=O)c1ccc(Nc2ncc3cc4n(c3n2)C2(CCCCC2)C(=O)N[C@H]4CF)cc1 [Compound 18]

>  <qualitative-label>
false

$$$$

Does the reported IC50 of CC1=NN(C)c2cc3cnc(Nc4ccc(S(N)(=O)=O)cc4)nc3n2C12CCCCC2 [Compound 46] stay below 600 nM?
false

----------
# target-under-test: CDK9/Cyclin T1 (Homo sapiens (Human), UniProt P50750)
# Sequence (P50750 whole entry): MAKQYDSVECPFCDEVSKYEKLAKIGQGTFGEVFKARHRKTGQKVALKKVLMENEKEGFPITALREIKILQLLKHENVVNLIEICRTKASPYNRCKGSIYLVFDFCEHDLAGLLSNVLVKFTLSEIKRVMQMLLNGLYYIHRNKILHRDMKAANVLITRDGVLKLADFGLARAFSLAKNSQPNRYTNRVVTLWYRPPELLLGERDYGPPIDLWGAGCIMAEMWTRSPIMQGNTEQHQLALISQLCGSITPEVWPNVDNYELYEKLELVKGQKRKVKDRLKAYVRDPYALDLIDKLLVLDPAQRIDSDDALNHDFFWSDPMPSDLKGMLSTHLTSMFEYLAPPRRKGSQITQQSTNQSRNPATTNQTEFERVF
# Sequence (O60563 whole entry partner): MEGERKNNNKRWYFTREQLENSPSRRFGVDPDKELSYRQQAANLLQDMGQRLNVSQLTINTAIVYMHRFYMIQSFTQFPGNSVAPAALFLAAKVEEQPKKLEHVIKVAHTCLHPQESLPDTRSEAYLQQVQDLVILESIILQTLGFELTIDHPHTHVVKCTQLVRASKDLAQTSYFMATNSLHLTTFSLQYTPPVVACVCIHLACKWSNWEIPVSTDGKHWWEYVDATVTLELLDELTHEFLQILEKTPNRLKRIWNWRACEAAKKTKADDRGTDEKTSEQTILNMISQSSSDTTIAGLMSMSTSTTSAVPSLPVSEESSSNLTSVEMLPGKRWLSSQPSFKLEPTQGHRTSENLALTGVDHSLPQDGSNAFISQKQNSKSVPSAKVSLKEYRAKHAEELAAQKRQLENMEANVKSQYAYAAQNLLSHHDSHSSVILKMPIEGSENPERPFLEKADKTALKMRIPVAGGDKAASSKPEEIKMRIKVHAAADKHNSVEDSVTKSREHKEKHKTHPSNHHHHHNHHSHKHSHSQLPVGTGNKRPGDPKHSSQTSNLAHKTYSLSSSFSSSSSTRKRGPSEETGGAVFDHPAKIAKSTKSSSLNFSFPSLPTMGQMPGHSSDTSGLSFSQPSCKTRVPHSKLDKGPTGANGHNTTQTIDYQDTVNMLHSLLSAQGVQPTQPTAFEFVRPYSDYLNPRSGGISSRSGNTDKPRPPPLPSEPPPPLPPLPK
# assay-summary: CDK9/Cyclin T1 kinase assay (Nanosyn, Caliper microfluidic)
# reported-conditions: 12-point dose-response, singlicate, at Km for ATP; ATP 10 μM; 17 hr
# Description: Selected compounds disclosed herein were tested in kinase assays by Nanosyn (Santa Clara, CA) to determine their inhibitory effect on these CDKs. The assays were performed using microfluidic kinase detection technology (Caliper Assay Platform). The compounds were tested in 12-point dose-response format in singlicate at Km for ATP. Specifics of each assay are as described below: CDK9/Cyclin T1: Enzyme concentration: 5 nM; ATP concentration: 10 μM; Incubation time: 17 hr.
Exam item: assign met to entries whose IC50 is below 0.01 µM and not met to entries at or above 0.01 µM. Note that a value of exactly 0.01 µM receives not met.

>  <molecule>
Nc1ccc(S(=O)(=O)Nc2ncc3cc4n(c3n2)C2(CCCCC2)C(=O)NN4)cc1 [Compound 84]

>  <qualitative-label>
not met

$$$$
>  <molecule>
CN1CCN(C(=O)c2ccc(Nc3ncc4cc5n(c4n3)C3(CCCCC3)C(=O)NN5)cc2)CC1 [Compound 52]

>  <qualitative-label>
not met

$$$$
>  <molecule>
NC(=O)c1ccc(Nc2ncc3cc4n(c3n2)C2(CCCCC2)C(=O)NN4)cc1 [Compound 63]

>  <qualitative-label>
not met

$$$$
>  <molecule>
CN1CCN(S(=O)(=O)c2ccc(Nc3ncc4cc5n(c4n3)C3(CCCCC3)C(=O)NC5O)cc2)CC1 (stereo not drawn) [Compound 50]

>  <qualitative-label>
met

$$$$
>  <molecule>
O=C(c1ccc(Nc2ncc3cc4n(c3n2)C2(CCCCC2)C(=O)NN4)cc1)N1CCOCC1 [Compound 74]

>  <qualitative-label>
not met

$$$$
>  <molecule>
CNC(=O)c1ccc(Nc2ncc3cc4n(c3n2)C2(CCCCC2)C(=O)NN4)cc1 [Compound 64]

>  <qualitative-label>
not met

$$$$
>  <molecule>
CC1C(=O)Nc2cc3cnc(Nc4ccc(C(=O)N5CCN(C)CC5)cc4)nc3n2C12CCCCC2 (stereo not drawn) [Compound 71]

>  <qualitative-label>
met

$$$$
>  <molecule>
CN1CCN(S(=O)(=O)c2ccc(Nc3ncc4cc5n(c4n3)C3(CCCCC3)C(=O)NN5)cc2)CC1 [Compound 49]

>  <qualitative-label>
not met

$$$$

Does the reported IC50 of CN1CCN(C(=O)c2ccc(Nc3ncc4cc5n(c4n3)C3(CCCCC3)CC(=O)N5)cc2)CC1 [Compound 54] stay below 0.01 µM?
met

Does the reported IC50 of O=C1NCC2(CCCCC2)n2c1cc1cnc(Nc3ccc(C(=O)N4CCNCC4)cc3)nc12 [Compound 55] stay below 0.01 µM?
met
